Target: MerTK (Homo sapiens, UniProt Q12866)
Construct: Seed HUVECs (10K cells/well) in EBM-2 complete media
Sequence (Q12866 21-999): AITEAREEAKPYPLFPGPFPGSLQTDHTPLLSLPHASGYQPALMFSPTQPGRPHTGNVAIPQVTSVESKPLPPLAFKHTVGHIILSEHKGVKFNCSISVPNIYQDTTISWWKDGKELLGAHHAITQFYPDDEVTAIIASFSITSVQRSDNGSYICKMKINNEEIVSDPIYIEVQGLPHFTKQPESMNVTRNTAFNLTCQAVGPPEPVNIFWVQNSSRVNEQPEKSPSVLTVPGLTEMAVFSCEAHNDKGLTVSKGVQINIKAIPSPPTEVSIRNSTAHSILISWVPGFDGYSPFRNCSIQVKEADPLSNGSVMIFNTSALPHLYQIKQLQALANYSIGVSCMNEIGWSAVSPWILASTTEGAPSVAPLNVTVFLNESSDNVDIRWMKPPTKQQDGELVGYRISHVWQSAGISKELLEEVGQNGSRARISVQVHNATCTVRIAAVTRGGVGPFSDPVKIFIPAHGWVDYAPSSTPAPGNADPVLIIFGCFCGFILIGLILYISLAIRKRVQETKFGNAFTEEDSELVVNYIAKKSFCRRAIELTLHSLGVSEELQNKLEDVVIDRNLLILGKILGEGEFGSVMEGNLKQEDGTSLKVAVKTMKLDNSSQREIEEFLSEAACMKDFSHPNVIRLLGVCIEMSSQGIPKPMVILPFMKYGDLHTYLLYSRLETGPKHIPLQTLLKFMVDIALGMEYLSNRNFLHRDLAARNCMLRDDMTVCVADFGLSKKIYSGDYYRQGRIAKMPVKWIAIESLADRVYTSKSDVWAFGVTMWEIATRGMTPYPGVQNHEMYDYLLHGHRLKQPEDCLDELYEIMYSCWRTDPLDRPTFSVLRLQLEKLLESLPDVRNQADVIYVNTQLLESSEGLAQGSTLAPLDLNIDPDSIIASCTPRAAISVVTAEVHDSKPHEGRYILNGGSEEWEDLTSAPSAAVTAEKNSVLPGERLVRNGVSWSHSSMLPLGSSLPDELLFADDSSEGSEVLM
Experiment: PAKT HTRF-HUVEC assay (pAkt Ser473 HTRF after anti-human MerTK-XL stimulation)
Conditions: HUVEC cells, 1 hour compound, stimulated with anti-human MerTK-XL 1 ug/mL for 10 minutes, read-out: inhibition of MerTK
Recorded pEC50 for the following compounds
Formally, pEC50 is defined as -log10 of the concentration c, with c in mol/L.

Some compounds with known pEC50 results, for comparison:
[
  {
    "Compound": "CCCCNc1ncc2c3ccc(CN4CCN(C)CC4)cc3c(=O)n([C@H]3CCC[C@H](O)CC3)c2n1",
    "pEC50": 7.14
  },
  {
    "Compound": "O=c1c2cc(N3CCN(C4CC4)CC3)ccc2c2cnc(NCC3CC3)nc2n1[C@H]1CC[C@H](O)CC1 [Compound 110]",
    "pEC50": 6.32
  },
  {
    "Compound": "O=c1c2cc(CN3CCN(c4ccncc4)CC3)ccc2c2cnc(NC3CCC3)nc2n1[C@H]1CC[C@H](O)CC1",
    "pEC50": 7.68
  },
  {
    "Compound": "CCC1(CNc2ncc3c4ccc(CN5CCN(C)CC5)cc4c(=O)n([C@H]4CC[C@H](O)CC4)c3n2)CC1",
    "pEC50": 6.23
  },
  {
    "Compound": "CC1(O)CCC(n2c(=O)c3cc(CN4CCC(N5CCCC5)CC4)ccc3c3cnc(NCC4CC4)nc32)CC1 (stereo not shown)",
    "pEC50": 7.48
  },
  {
    "Compound": "O=c1c2cc(CN3CC[S+]([O-])CC3)ccc2c2cnc(NCC3CC3)nc2n1[C@H]1CC[C@H](O)CC1 [Compound 52]",
    "pEC50": 6.40
  }
]

Switching to the query record.
### Prompt Quick one: pEC50 for CCC(F)(F)CNc1ncc2c3ccc(N4CCN(C)CC4)cc3c(=O)n([C@H]3CC[C@H](O)CC3)c2n1 ?
### Response 6.45

====

Target: MerTK (Homo sapiens)
Construct: Seed HUVECs (10K cells/well) in EBM-2 complete media
Assay: PAKT HTRF-HUVEC assay (pAkt Ser473 HTRF after anti-human MerTK-XL stimulation)
Conditions: HUVEC cells, 1 hour compound, stimulated with anti-human MerTK-XL 1 ug/mL for 10 minutes, read-out: inhibition of MerTK
Method: Example 4: PAKT HTRF-HUVEC Assay Phospho Akt (Ser473) Assay kit-10,000 tests (Cisbio US, 64[…]) HUVEC cells (Lonza, CC-2519) Anti-human MerTK antibody (Clone 125518) (R&D Systems, MAB8912) Method Seed HUVECs (10K cells/well) in EBM-2 complete media (EBM-2 basal medium plus EGM-2 BulletKit supplements) overnight at 37° C., 5% CO2 in Costar 96-well white clear-bottom plates. Remove culture media and starve cells for 3-4 hours in 50 μL/well EBM-2 basal medium. […]
Below is a list of entries, each paired with its recorded EC50 value.
Number only, in nM; omit the unit.

Here are 3 compounds together with their reported answers.
[
  {
    "Compound": "CN1CCN(Cc2ccc3c(c2)c(=O)n([C@H]2CC[C@H](NC(=O)OC(C)(C)C)CC2)c2nc(NCC4CC4)ncc32)CC1 [Compound 184]",
    "EC50, nM": 5140
  },
  {
    "Compound": "O=c1c2cc(CN3CCN4CCC3CC4)ccc2c2cnc(NCC3CC3)nc2n1[C@H]1CC[C@H](O)CC1 [Compound 58]",
    "EC50, nM": 115
  },
  {
    "Compound": "CCCCNc1ncc2c3ccccc3c(=O)n(C3CCC(C)(O)CC3)c2n1 (stereo not shown) [Compound 113]",
    "EC50, nM": 44.9
  }
]

Could you now look at the following compound, please?
### Prompt Requested field: EC50. Item: C[C@]1(O)CC[C@H](n2c(=O)c3cc(CN4CCOCC4)ccc3c3cnc(NCC4CC4)nc32)CC1 [Compound 46]
### Response 116

====

Target: MerTK (Homo sapiens)
Construct: Seed HUVECs (10K cells/well) in EBM-2 complete media
Test: PAKT HTRF-HUVEC assay (pAkt Ser473 HTRF after anti-human MerTK-XL stimulation)
Conditions: HUVEC cells, 1 hour compound, stimulated with anti-human MerTK-XL 1 ug/mL for 10 minutes, read-out: inhibition of MerTK
Field 'label' (enum: criterion met / criterion not met). Set to criterion met when EC50 is strictly under 80 nM; else criterion not met.

Example entries and their recorded answers appear below.
[
  {
    "Compound": "CC(C)N1CCN(Cc2ccc3c(c2)c(=O)n([C@H]2CC[C@H](O)CC2)c2nc(NCC4CCC4)ncc32)CC1",
    "System Tested": "MerTK (Homo sapiens)",
    "Class Label": "criterion met"
  },
  {
    "Compound": "CCCCNc1ncc2c3ccc(N4CCn5ncnc5C4)cc3c(=O)n([C@H]3CC[C@H](O)CC3)c2n1",
    "System Tested": "MerTK (Homo sapiens)",
    "Class Label": "criterion met"
  },
  {
    "Compound": "CN1CC2(C1)CN(c1ccc3c(c1)c(=O)n([C@H]1CC[C@H](O)CC1)c1nc(NC4CC(F)C4)ncc31)C2 (stereo partly shown)",
    "System Tested": "MerTK (Homo sapiens)",
    "Class Label": "criterion not met"
  },
  {
    "Compound": "CCC[C@H](C)Nc1ncc2c3ccc(CN4CCN(c5ccncc5)CC4)cc3c(=O)n([C@H]3CC[C@H](O)CC3)c2n1",
    "System Tested": "MerTK (Homo sapiens)",
    "Class Label": "criterion met"
  },
  {
    "Compound": "CC(C)N1CCN(c2ccc3c(c2)c(=O)n([C@H]2CC[C@H](O)CC2)c2nc(NCC4CC4)ncc32)CC1 [Compound 176]",
    "System Tested": "MerTK (Homo sapiens)",
    "Class Label": "criterion not met"
  }
]

Next, consider the following compound.
### Prompt For this compound, is EC50 lower than 80 nM? CN1CCN(Cc2ccc3c(c2)c(=O)n([C@H]2CC[C@H](O)CC2)c2nc(NCC4CC4)ncc32)CC1
### Response criterion met

====

molecules and their reported pEC50
Target: MerTK (Homo sapiens)
Construct: Seed HUVECs (10K cells/well) in EBM-2 complete media
Test: PAKT HTRF-HUVEC assay (pAkt Ser473 HTRF after anti-human MerTK-XL stimulation)
Conditions: HUVEC cells, 1 hour compound, stimulated with anti-human MerTK-XL 1 ug/mL for 10 minutes, read-out: inhibition of MerTK
Scale: negative log10 of molar concentration, which is what pEC50 denotes.

Illustrative cases are given below, each with its answer.
[
  {
    "Molecule": "CCCCNc1ncc2c3ccc(N4CCN(C)CC4)cc3c(=O)n(C3CCC(C)(O)CC3)c2n1 (stereo not shown)",
    "System Tested": "MerTK (Homo sapiens)",
    "Observed Property": "pEC50",
    "Recorded Value": 7.70
  },
  {
    "Molecule": "CCCCNc1ncc2c3ccc(CN4CCN(C)CC4)cc3c(=O)n([C@H]3CC[C@H](N(C)C)C3)c2n1",
    "System Tested": "MerTK (Homo sapiens)",
    "Observed Property": "pEC50",
    "Recorded Value": 6.89
  },
  {
    "Molecule": "CCCCNc1ncc2c3ccc(N4CCN(C5COC5)CC4)cc3c(=O)n([C@H]3CC[C@H](O)CC3)c2n1",
    "System Tested": "MerTK (Homo sapiens)",
    "Observed Property": "pEC50",
    "Recorded Value": 7.66
  }
]

Now examine the next entry.
### Prompt Form field: pEC50 recorded for CCC1(CNc2ncc3c4ccc(CN5CCOCC5)cc4c(=O)n([C@H]4CC[C@H](O)CC4)c3n2)CC1 with MerTK (Homo sapiens) (enter value)
### Response 5.93
